Value source: the supplement of paper PMC10883282

relative viability reference
# Tested on: KHOS-NP
# assayDetails: relative viability vs DMSO control (72 h) (fraction); higher = more viable cells
# conditions: 0.00152 µM
I only need the number, thanks.

Past entries and their recorded results:
{"columns": ["structureNotation", "experimentalResult"],
 "data": [
  ["NC(=O)c1cccc2cn(-c3ccc([C@@H]4CCCNC4)cc3)nc12", 1.04],
  ["C[C@H]1Oc2cc(cnc2N)-c2c(nn(C)c2C#N)CN(C)C(=O)c2ccc(F)cc21", 1.09]
]}

Now take the following molecule into account.
For FC(F)(F)c1ccc(CNc2ccc(Cc3c[nH]c4ncc(Cl)cc34)cn2)cn1 the molecule record lists relative viability as 1.08

---

# Tested on: VA-ES-BJ
# assayDetails: relative viability vs DMSO control (72 h) (fraction); higher = more viable cells
# conditions: 0.1235 µM
Recorded measurements of relative viability, one per entry

{"columns": ["structureNotation", "relative viability"],
 "data": [
  ["C[C@@H](Oc1cc(-c2cnn(C3CCNCC3)c2)cnc1N)c1c(Cl)ccc(F)c1Cl", 0.899],
  ["Cc1ccc(NC(=O)c2ccc(CN3CCN(C)CC3)cc2)cc1Nc1nccc(-c2cccnc2)n1", 1.01],
  ["CCN(c1cc(-c2ccc(CN3CCOCC3)cc2)cc(C(=O)NCc2c(C)cc(C)[nH]c2=O)c1C)C1CCOCC1", 1.06]
]}

Value of measured relative viability for the entry Cc1c(F)cc(C(=O)NC2CC2)cc1-c1ccc(C(=O)NCC(C)(C)C)cn1 : 0.988

---

# Tested on: KHOS-240S
# assayDetails: relative viability vs DMSO control (72 h) (fraction); higher = more viable cells
# conditions: 0.01372 µM
The entries below are paired with their reported relative viability.
Write the value as a bare number.

Please review the entries below; each comes with its answer.
{"columns": ["molecule", "experimentalResult"],
 "data": [
  ["CO[C@H]1C[C@@H]2CC[C@@H](C)[C@@](O)(O2)C(=O)C(=O)N2CCCC[C@H]2C(=O)O[C@H]([C@H](C)C[C@@H]2CC[C@@H](O)[C@H](OC)C2)CC(=O)[C@H](C)/C=C(\\C)[C@@H](O)[C@@H](OC)C(=O)[C@H](C)C[C@H](C)/C=C/C=C/C=C/1C [Rapamycin]", 0.809],
  ["COc1cc2nccc(Oc3ccc(NC(=O)C4(C(=O)Nc5ccc(F)cc5)CC4)cc3)c2cc1OC [Cabozantinib]", 1.06],
  ["CCCCCCCCCCCCCCCCCCOP(=O)([O-])OC1CC[N+](C)(C)CC1 [Perifosine]", 1.1],
  ["CCN(CCCOc1ccc2c(Nc3cc(CC(=O)Nc4cccc(F)c4)[nH]n3)ncnc2c1)CCOP(=O)(O)O [Barasertib]", 0.978],
  ["Cc1c(F)cc(C(=O)NC2CC2)cc1-c1ccc(C(=O)NCC(C)(C)C)cn1 [Losmapimod]", 1.04]
]}

// COc1cc(OC)cc(N(CCNC(C)C)c2ccc3ncc(-c4cnn(C)c4)nc3c2)c1 [Erdafitinib] : relative viability value = 0.939

The reported value for Cc1nc(Nc2ncc(C(=O)Nc3c(C)cccc3Cl)s2)cc(N2CCN(CCO)CC2)n1 [Dasatinib] in terms of relative viability is 0.816

---

# System: KHOS-NP
# assayDetails: relative viability vs DMSO control (72 h) (fraction); higher = more viable cells
# conditions: 0.04115 µM
experimentalEndpoint: relative viability
Please give the numeric answer without any surrounding text.

{"columns": ["structureNotation", "experimentalResult"],
 "data": [
  ["CN1CCN(CCOc2cc(OC3CCOCC3)c3c(Nc4c(Cl)ccc5c4OCO5)ncnc3c2)CC1", 1.06],
  ["C[C@@H]1COC(Nc2ccc3ncnc(Nc4ccc(OCc5nccs5)c(Cl)c4)c3c2)=N1", 1.05]
]}

Documented relative viability of CCCCCCCCCCCCCCCCCCOP(=O)([O-])OC1CC[N+](C)(C)CC1 : 1.08
